Origin of values: paper PMC4336329

# ASSAY TARGET: human ether-à-go-go-related gene (hERG) potassium channel (human, UniProt Q12809)
# Sequence (Q12809 whole entry, looked up): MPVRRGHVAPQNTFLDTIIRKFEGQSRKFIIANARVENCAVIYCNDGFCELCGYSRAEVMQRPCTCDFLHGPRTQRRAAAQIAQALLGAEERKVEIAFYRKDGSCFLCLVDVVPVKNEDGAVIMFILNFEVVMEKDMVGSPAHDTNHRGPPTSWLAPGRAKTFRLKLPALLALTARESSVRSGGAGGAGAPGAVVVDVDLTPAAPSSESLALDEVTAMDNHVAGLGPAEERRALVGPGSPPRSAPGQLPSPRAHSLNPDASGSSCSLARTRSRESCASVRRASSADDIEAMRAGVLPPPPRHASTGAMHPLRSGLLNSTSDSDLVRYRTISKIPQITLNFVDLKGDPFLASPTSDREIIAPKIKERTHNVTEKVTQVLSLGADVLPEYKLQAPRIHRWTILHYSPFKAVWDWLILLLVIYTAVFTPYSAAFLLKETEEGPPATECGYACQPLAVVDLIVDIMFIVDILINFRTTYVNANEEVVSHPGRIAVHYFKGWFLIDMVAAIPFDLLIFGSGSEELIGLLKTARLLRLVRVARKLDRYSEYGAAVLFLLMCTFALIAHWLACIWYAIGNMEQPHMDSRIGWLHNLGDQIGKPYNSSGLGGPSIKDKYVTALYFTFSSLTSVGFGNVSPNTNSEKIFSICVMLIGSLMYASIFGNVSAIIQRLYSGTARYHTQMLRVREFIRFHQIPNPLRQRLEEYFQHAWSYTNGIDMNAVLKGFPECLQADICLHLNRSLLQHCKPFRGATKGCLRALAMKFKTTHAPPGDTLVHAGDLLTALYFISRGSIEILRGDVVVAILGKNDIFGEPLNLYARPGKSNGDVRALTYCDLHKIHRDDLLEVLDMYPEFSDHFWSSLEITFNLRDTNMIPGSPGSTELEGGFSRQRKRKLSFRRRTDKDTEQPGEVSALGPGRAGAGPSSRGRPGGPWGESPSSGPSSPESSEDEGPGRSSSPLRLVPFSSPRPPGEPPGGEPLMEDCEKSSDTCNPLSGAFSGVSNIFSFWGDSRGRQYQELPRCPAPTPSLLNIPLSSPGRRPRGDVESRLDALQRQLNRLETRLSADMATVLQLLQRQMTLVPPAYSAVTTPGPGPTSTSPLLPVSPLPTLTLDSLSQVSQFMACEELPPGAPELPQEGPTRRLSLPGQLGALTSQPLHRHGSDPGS
# EXPERIMENTAL PROTOCOL: primary screen, population patch clamp on CHO cells stably expressing hERG; higher = less effect of the substance
Hit rate of the full screen: of about 310,000 compounds, about 14,000 (4.5%) showed an effect of 50% or more. Effects have a minus sign here. Shown is part of a subset that was picked to be rich in strong results.
Readings of hERG current change (%, negative = inhibition) at 10uM for the listed compounds
Give the quantity in %, number only.

Fill in the blank: the reported hERG current change (%, negative = inhibition) at 10uM of `CC1CCN(S(=O)(=O)N2CCC(C(=O)NCCc3ccccc3)CC2)CC1` is ____.
2.8

Fill in the blank: the reported hERG current change (%, negative = inhibition) at 10uM of `Cc1ccc(-n2cc(-c3ccc([N+](=O)[O-])cc3)[nH]c2=S)c(C)c1` is ____.
-51.3

Fill in the blank: the reported hERG current change (%, negative = inhibition) at 10uM of `O=[N+]([O-])c1ccc(-c2cn(-c3ccccc3F)c(=S)[nH]2)cc1` is ____.
-3.28

###

Readings of hERG current change (%, negative = inhibition) at 10uM for the listed compounds
# ASSAY TARGET: human ether-à-go-go-related gene (hERG) potassium channel (human)
# EXPERIMENTAL PROTOCOL: primary screen, population patch clamp on CHO cells stably expressing hERG; higher = less effect of the substance
# Protocol: Briefly, Chinese hamster ovary (CHO) cells stably expressing the hERG channel were dislodged from tissue culture flasks and dispensed into PPC plates. […] During the recording, background leak currents were estimated by a 100 ms step to -80 mV from an initial holding potential of -70 mV and subtracted from the subsequent current measurement. The campaign was conducted in two phases using slight differences in recording protocol. […]
Hit rate of the full screen: of about 310,000 compounds, about 14,000 (4.5%) showed an effect of 50% or more. Effects have a minus sign here. This excerpt belongs to a sample that is enriched for strong results.
Give the quantity in %, number only.

Fill in the blank: the reported hERG current change (%, negative = inhibition) at 10uM of `CCCCN(C)CCNC(=O)c1cc2c(-c3ccccc3F)nn(C)c2s1` is ____.
-48

Fill in the blank: the reported hERG current change (%, negative = inhibition) at 10uM of `CCCNC(=O)c1cc(-c2ccccc2)c(N2CCCCC2)s1` is ____.
14.2

Fill in the blank: the reported hERG current change (%, negative = inhibition) at 10uM of `Cn1nc(-c2ccc(Cl)cc2)c2cc(C(=O)NC3CC3)sc21` is ____.
-1.54

Fill in the blank: the reported hERG current change (%, negative = inhibition) at 10uM of `CCN(CC)CCCNC(=O)c1cc(-c2ccccc2)c(N2CCCCC2)s1` is ____.
-51.7

Okay, now this compound:
Fill in the blank: the reported hERG current change (%, negative = inhibition) at 10uM of `CCCCN(CC)CCNC(=O)c1cc2c(-c3ccccc3F)nn(C)c2s1` is ____.
-66.7

###

Readings of hERG current change (%, negative = inhibition) at 10uM for the listed molecules
# ASSAY TARGET: human ether-à-go-go-related gene (hERG) potassium channel (human);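 also: peak tail current of the secondary pulse compared with the same well before compound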
# EXPERIMENTAL PROTOCOL: primary screen, population patch clamp on CHO cells stably expressing hERG; higher = less effect of the substance
In all, about 310,000 compounds went through this assay and about 14,000 (4.5%) showed an effect of 50% or more. The effect is printed as a negative number. Many of the other results were omitted from the sample, so strong results are more common in it than they were.
A complete answer gives the number followed by the unit.

Fill in the blank: the reported hERG current change (%, negative = inhibition) at 10uM of `O=C(/C=C/c1ccc(Cl)cc1)N1CCN(Cc2ccccc2)CC1` is ____.
-35.6%

Okay, now this molecule:
Fill in the blank: the reported hERG current change (%, negative = inhibition) at 10uM of `CSc1cccc(NC(=S)N2CCC(N(C)C3CCCC3)CC2)c1` is ____.
-29.2%

###

Readings of hERG current change (%, negative = inhibition) at 10uM for the listed molecules
# ASSAY TARGET: human ether-à-go-go-related gene (hERG) potassium channel (human);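 also: peak tail current of the secondary pulse compared with the same well before compound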
# EXPERIMENTAL PROTOCOL: primary screen, population patch clamp on CHO cells stably expressing hERG; higher = less effect of the substance
About 14,000 (4.5%) of roughly 310,000 compounds showed an effect of 50% or more. Effects have a minus sign here. Only a selection was taken, and strong results are over-represented in it overall.
Give the quantity in %, number only.

Fill in the blank: the reported hERG current change (%, negative = inhibition) at 10uM of CCN(CC)S(=O)(=O)c1ccc(OC)c(NC(=O)C2CC(=O)N(c3ccc(C)cc3)C2)c1 (stereo not drawn) is ____.
-19.6

New cases:
Fill in the blank: the reported hERG current change (%, negative = inhibition) at 10uM of COc1ccc(NC(=O)C2CCCN2S(=O)(=O)c2cccs2)c([N+](=O)[O-])c1 (stereo not drawn) is ____.
-68.3

Fill in the blank: the reported hERG current change (%, negative = inhibition) at 10uM of `CN(C)CCCN(C(=O)c1ccc(S(=O)(=O)N(C)Cc2ccccc2)cc1)c1nc2c(F)cccc2s1.Cl` is ____.
-38.2

Fill in the blank: the reported hERG current change (%, negative = inhibition) at 10uM of COc1ccc(-c2nnc(NC(=O)C3CCCN3S(=O)(=O)c3cccs3)o2)cc1 (stereo not drawn) is ____.
-3.47

Fill in the blank: the reported hERG current change (%, negative = inhibition) at 10uM of `COc1ccc(NC(=O)C/C(C)=N/NC(=O)c2ccco2)c([N+](=O)[O-])c1` is ____.
-33.9

Fill in the blank: the reported hERG current change (%, negative = inhibition) at 10uM of `COc1ccc(NC(=O)C/C(C)=N/NC(=O)c2cccs2)c([N+](=O)[O-])c1` is ____.
-54.4

Fill in the blank: the reported hERG current change (%, negative = inhibition) at 10uM of `COc1cc(NC(=O)C/C(C)=N/NC(=O)c2cccs2)c(OC)cc1Cl` is ____.
-14.4

Fill in the blank: the reported hERG current change (%, negative = inhibition) at 10uM of `COc1cc2nc(N(CCN(C)C)C(=O)c3ccc4ccccc4c3)sc2cc1OC.Cl` is ____.
-40.8

Fill in the blank: the reported hERG current change (%, negative = inhibition) at 10uM of `COc1ccc2sc(N(CCN(C)C)C(=O)/C=C/c3cccs3)nc2c1.Cl` is ____.
-33.2

###

# ASSAY TARGET: human ether-à-go-go-related gene (hERG) potassium channel (human, UniProt Q12809);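 also: peak tail current of the secondary pulse compared with the same well before compound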
# EXPERIMENTAL PROTOCOL: primary screen, population patch clamp on CHO cells stably expressing hERG; higher = less effect of the substance
# Description: Briefly, Chinese hamster ovary (CHO) cells stably expressing the hERG channel were dislodged from tissue culture flasks and dispensed into PPC plates. […] During the recording, background leak currents were estimated by a 100 ms step to -80 mV from an initial holding potential of -70 mV and subtracted from the subsequent current measurement. The campaign was conducted in two phases using slight differences in recording protocol. […]
Screen size: about 310,000 compounds; about 14,000 (4.5%) showed an effect of 50% or more. The effect is printed as a negative number. This is one part of a sample in which strong results are shown more often than they occur.
Readings of hERG current change (%, negative = inhibition) at 10uM for the listed compounds
Give the quantity in %, number only.

Fill in the blank: the reported hERG current change (%, negative = inhibition) at 10uM of O=C(CSc1cn(CCNC(=O)c2ccccc2)c2ccccc12)NCC1CCCO1 (stereo not shown) is ____.
-10.9

New cases:
Fill in the blank: the reported hERG current change (%, negative = inhibition) at 10uM of `CC(=NCCN1CCN(C(=S)Nc2ccccc2)CC1)C1=C(O)CC(C)(C)CC1=O` is ____.
-15.3

Fill in the blank: the reported hERG current change (%, negative = inhibition) at 10uM of `Cc1sc2ncnc(N/N=C/c3cccc(O)c3)c2c1C` is ____.
-61.9

Fill in the blank: the reported hERG current change (%, negative = inhibition) at 10uM of CCOC(=O)C1CCC2(CC1)C(C#N)=C(N)Oc1n[nH]c(C)c12 (stereo not shown) is ____.
-14.2

Fill in the blank: the reported hERG current change (%, negative = inhibition) at 10uM of `COCc1c(C#N)c(NCc2cc(OC)c(OC)c(OC)c2)nc(C)c1[N+](=O)[O-]` is ____.
-12.2

###

# ASSAY TARGET: human ether-à-go-go-related gene (hERG) potassium channel (human, UniProt Q12809);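 also: peak tail current of the secondary pulse compared with the same well before compound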
# EXPERIMENTAL PROTOCOL: primary screen, population patch clamp on CHO cells stably expressing hERG; higher = less effect of the substance
Screen size: about 310,000 compounds; about 14,000 (4.5%) showed an effect of 50% or more. Effects have a minus sign here. This excerpt belongs to a sample that is enriched for strong results.
METRIC: hERG current change (%, negative = inhibition) at 10uM (%)
Give the quantity in %, number only.

Fill in the blank: the reported hERG current change (%, negative = inhibition) at 10uM of O=C(N=C1SC2CS(=O)(=O)CC2N1c1ccc(Cl)cc1Cl)C1CC1 (centres unmarked) is ____.
-7.48

Fill in the blank: the reported hERG current change (%, negative = inhibition) at 10uM of COCC(=O)N1CCCC(C(=O)c2ccc3c4c(cccc24)CC3)C1 (centres unmarked) is ____.
-21.2

Fill in the blank: the reported hERG current change (%, negative = inhibition) at 10uM of `Fc1ccc(-c2csc3ncnc(N4CCN(Cc5ccccc5)CC4)c23)cc1` is ____.
-2.14

Fill in the blank: the reported hERG current change (%, negative = inhibition) at 10uM of `Cc1ccc(N2C(=O)NC(=O)/C(=C\c3cccn3C(C)(C)C)C2=O)cc1` is ____.
24.5

Fill in the blank: the reported hERG current change (%, negative = inhibition) at 10uM of Cc1cnc(CN2CCCC(C(=O)c3ccc4c5c(cccc35)CC4)C2)[nH]1 (centres unmarked) is ____.
-31.7

New cases:
Fill in the blank: the reported hERG current change (%, negative = inhibition) at 10uM of `Cc1ccc(-c2csc3ncnc(N4CCN(c5ccccc5O)CC4)c23)cc1` is ____.
25.8

Fill in the blank: the reported hERG current change (%, negative = inhibition) at 10uM of COc1cc(CN2CCCC(C(=O)c3ccc4c5c(cccc35)CC4)C2)cc(OC)c1O (centres unmarked) is ____.
-53

Fill in the blank: the reported hERG current change (%, negative = inhibition) at 10uM of `O=c1c2ccccc2nc(-c2ccccc2)n1-c1ccccc1O` is ____.
16.1

Fill in the blank: the reported hERG current change (%, negative = inhibition) at 10uM of COc1ccc(CCNC(=O)C2CCCN2C(=O)Nc2cccc(C(C)=O)c2)cc1OC (centres unmarked) is ____.
-3.26

Fill in the blank: the reported hERG current change (%, negative = inhibition) at 10uM of `O=C(c1ccco1)N1CCN(c2ncnc3scc(-c4cccs4)c23)CC1` is ____.
-63.9
